Just for reference, ChEMBL document CHEMBL1127676 is where these values come from.

target: Epidermal growth factor receptor (Homo sapiens); assay: Inhibitory potency against protein tyrosine kinase activity associated with EGFR was evaluated using ER 22 cell membrane
Sequence (P00533 whole entry): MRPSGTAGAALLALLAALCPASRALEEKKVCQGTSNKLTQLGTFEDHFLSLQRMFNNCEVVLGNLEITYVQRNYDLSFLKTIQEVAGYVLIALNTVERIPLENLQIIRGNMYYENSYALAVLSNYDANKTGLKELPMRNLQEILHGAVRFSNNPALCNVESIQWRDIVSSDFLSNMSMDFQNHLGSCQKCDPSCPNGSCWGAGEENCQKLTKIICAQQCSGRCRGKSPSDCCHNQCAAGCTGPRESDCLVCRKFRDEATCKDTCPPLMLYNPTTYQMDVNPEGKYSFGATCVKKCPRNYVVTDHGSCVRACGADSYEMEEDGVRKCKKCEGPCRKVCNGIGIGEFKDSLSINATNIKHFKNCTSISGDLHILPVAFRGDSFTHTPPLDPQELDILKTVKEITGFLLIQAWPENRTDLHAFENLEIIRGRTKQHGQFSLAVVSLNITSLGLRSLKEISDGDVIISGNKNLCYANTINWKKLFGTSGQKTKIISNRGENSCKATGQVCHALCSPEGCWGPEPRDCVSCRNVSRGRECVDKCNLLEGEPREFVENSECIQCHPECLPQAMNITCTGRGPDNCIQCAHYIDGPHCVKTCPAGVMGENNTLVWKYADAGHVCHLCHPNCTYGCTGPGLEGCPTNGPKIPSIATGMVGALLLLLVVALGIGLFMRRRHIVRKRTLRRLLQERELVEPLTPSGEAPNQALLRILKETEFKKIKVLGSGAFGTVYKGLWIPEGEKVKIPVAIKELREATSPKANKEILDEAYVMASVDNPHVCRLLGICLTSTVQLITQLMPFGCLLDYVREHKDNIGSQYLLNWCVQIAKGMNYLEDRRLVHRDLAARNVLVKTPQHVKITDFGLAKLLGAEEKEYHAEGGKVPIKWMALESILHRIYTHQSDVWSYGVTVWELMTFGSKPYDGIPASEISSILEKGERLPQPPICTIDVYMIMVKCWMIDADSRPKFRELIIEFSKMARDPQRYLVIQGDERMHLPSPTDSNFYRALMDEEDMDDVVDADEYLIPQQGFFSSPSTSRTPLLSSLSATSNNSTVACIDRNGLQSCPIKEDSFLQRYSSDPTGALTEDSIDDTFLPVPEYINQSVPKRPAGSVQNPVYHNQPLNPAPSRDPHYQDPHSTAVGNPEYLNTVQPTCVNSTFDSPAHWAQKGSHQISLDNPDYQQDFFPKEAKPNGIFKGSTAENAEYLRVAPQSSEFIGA
pIC50: −log10 of the molar value.
OUTCOME_MEASURE: pIC50

{"columns": ["MOLECULE", "SIGN", "READOUT_VALUE"],
 "data": [
  ["CC(COC(=O)c1cc(NCc2cc(O)ccc2O)ccc1O)Cc1ccccc1 (stereo not given)", "=", 6.44],
  ["CC(CCOC(=O)c1cc(NCc2cc(O)ccc2O)ccc1O)c1ccccc1 (stereo not given)", "=", 6.40],
  ["O=C(OCCc1ccccc1)c1cc(NCc2cc(O)ccc2O)ccc1O", "=", 6.89],
  ["O=C(OCCCCc1ccccc1)c1cc(NCc2cc(O)ccc2O)ccc1O", "=", 6.40],
  ["CC(C)(C)OC(=O)c1cc(NCc2cc(O)ccc2O)ccc1O", "=", 6.00],
  ["O=C(Cc1cc(NCc2cc(O)ccc2O)ccc1O)NOCc1ccccc1", "=", 6.00],
  ["O=C(Oc1cccc2ccccc12)c1cc(NCc2cc(O)ccc2O)ccc1O", "=", 6.96],
  ["CC(C)(C)ONC(=O)Cc1cc(/N=C/c2cc(O)ccc2O)ccc1O", "=", 4.51],
  ["CCOC(=O)c1cc(NCc2cc(O)ccc2O)ccc1O", "=", 6.40],
  ["O=C(Oc1cccc(O)c1)c1cc(NCc2cc(O)ccc2O)ccc1O", "=", 7.05],
  ["O=C(O)Cc1cc(NCc2cc(O)ccc2O)ccc1O", "=", 5.22],
  ["CCCCCCCCCCCCCCCCOC(=O)c1cc(NCc2cc(O)ccc2O)ccc1O", "<", 5.30],
  ["O=C(Oc1ccc2ccccc2c1)c1cc(NCc2cc(O)ccc2O)ccc1O", "=", 7.05],
  ["CC(C)c1ccc(COC(=O)c2cc(NCc3cc(O)ccc3O)ccc2O)cc1", "=", 6.00],
  ["CC(COC(=O)c1cc(/N=C/c2cc(O)ccc2O)ccc1O)CC(C)(C)C (stereo not given)", "<", 5.00],
  ["COC(=O)Cc1cc(/N=C/c2cc(O)ccc2O)ccc1O", "=", 4.00],
  ["CCOC(=O)Cc1cc(/N=C/c2cc(O)ccc2O)ccc1O", "=", 4.00],
  ["CONC(=O)c1cc(/N=C/c2cc(O)ccc2O)ccc1O", "=", 4.57],
  ["Cc1cc(C)cc(COC(=O)c2cc(NCc3cc(O)ccc3O)ccc2O)c1", "=", 5.52],
  ["O=C(NOCc1ccccc1)c1cc(NCc2cc(O)ccc2O)ccc1O", "=", 7.30],
  ["O=C(OCCCc1ccccc1)c1cc(NCc2cc(O)ccc2O)ccc1O", "=", 7.52],
  ["CC(C)(C)CCOC(=O)c1cc(NCc2cc(O)ccc2O)ccc1O", "=", 6.15],
  ["O=C(O)c1cc(/N=C/c2cc(O)ccc2O)ccc1O", "=", 5.30],
  ["O=C(OCc1ccccc1)c1cc(NCc2cc(O)ccc2O)ccc1O", "=", 7.10],
  ["O=P(O)(O)Cc1cc(NCc2cc(O)ccc2O)ccc1O", "=", 5.52],
  ["O=C(O)Cc1cc(/N=C/c2cc(O)ccc2O)ccc1O", "=", 4.46],
  ["CCOC(=O)Cc1cc(NCc2cc(O)ccc2O)ccc1O", "=", 5.15],
  ["COC(=O)c1cc(NCc2cc(O)ccc2O)ccc1O", "=", 6.22],
  ["O=C(Oc1ccc(-c2ccccc2)cc1)c1cc(NCc2cc(O)ccc2O)ccc1O", "=", 5.30],
  ["O=C(OCCC12C[C@H]3C[C@@H](C1)C[C@@H](C2)C3)c1cc(NCc2cc(O)ccc2O)ccc1O", "<", 5.30],
  ["CCOP(=O)(Cc1cc(/N=C/c2cc(O)ccc2O)ccc1O)OCC", "<", 4.00],
  ["O=C(NO)c1cc(NCc2cc(O)ccc2O)ccc1O", "=", 6.40],
  ["CC(C)CCCC(C)CCOC(=O)c1cc(NCc2cc(O)ccc2O)ccc1O (stereo not given)", "=", 5.15],
  ["CCOC(=O)c1cc(/N=C/c2cc(O)ccc2O)ccc1O", "=", 4.30],
  ["CC(CCOC(=O)c1cc(NCc2cc(O)ccc2O)ccc1O)CC(C)(C)C (stereo not given)", "<", 6.00],
  ["CC(C)(C)ONC(=O)Cc1cc(NCc2cc(O)ccc2O)ccc1O", "=", 5.30],
  ["O=C(OC/C=C/c1ccccc1)c1cc(NCc2cc(O)ccc2O)ccc1O", "=", 5.89],
  ["O=C(OCC1CCCCC1)c1cc(NCc2cc(O)ccc2O)ccc1O", "=", 5.92],
  ["O=C(Oc1ccccc1)c1cc(NCc2cc(O)ccc2O)ccc1O", "=", 7.15],
  ["COC(=O)Cc1cc(NCc2cc(O)ccc2O)ccc1O", "=", 5.52],
  ["CC(C)(C)ONC(=O)c1cc(NCc2cc(O)ccc2O)ccc1O", "=", 7.00],
  ["CONC(=O)c1cc(NCc2cc(O)ccc2O)ccc1O", "=", 6.52],
  ["CCOP(=O)(Cc1cc(NCc2cc(O)ccc2O)ccc1O)OCC", "=", 5.40],
  ["O=C(Cc1cc(/N=C/c2cc(O)ccc2O)ccc1O)NOCc1ccccc1", "=", 4.30]
]}
